Reference source for all entries: BindingDB's records for doi:10.1016/j.ejmech.2017.05.048

# experiment-notes: Inhibition of perforin (unknown origin)-mediated 51Cr-labelled human Jurkat cell lysis preincubated with protein for 30 mins followed by cell addition measured after 4 hrs by gamma counting method
Quick rule for you: IC50 under 8 µM gets y, anything else gets n.

Q) Lab log: compare recorded IC50 with 8 µM; is it strictly lower for "CN1Cc2cc(-c3ccc(-c4cncc(NS(=O)(=O)c5ccccc5)c4)s3)ccc2C1=O" ?
A) n

Q) Record "CN1Cc2cc(-c3ccc(-c4ccc(OC(F)(F)F)c(NS(=O)(=O)c5ccccn5)c4)s3)ccc2C1=O" : is its IC50 strictly below 8 µM?
A) n

Q) Problem: For the molecule "CN1Cc2cc(-c3ccc(-c4cncc(NS(=O)(=O)c5ccsc5)c4)s3)ccc2C1=O" , is IC50 under 8 µM?
A) n

Q) Does "CN1Cc2cc(-c3ccc(-c4cncc(S(=O)(=O)Nc5ccc(F)cc5F)c4)s3)ccc2C1=O" have IC50 strictly under 8 µM?
A) y

Q) IC50 strictly < 8 µM for this molecule? "COc1ccc(S(=O)(=O)Nc2cncc(-c3ccc(-c4ccc5c(c4)CN(C)C5=O)s3)c2)cc1"
A) y

Q) Lab log: compare recorded IC50 with 8 µM; is it strictly lower for "CN1Cc2cc(-c3ccc(-c4cncc(NS(=O)(=O)c5cccc(C(F)(F)F)c5)c4)s3)ccc2C1=O" ?
A) y

Q) Input "CN1Cc2cc(-c3ccc(-c4cncc(NS(=O)(=O)c5ccc(OC(F)(F)F)cc5)c4)s3)ccc2C1=O" ; condition: IC50 strictly below 8 µM. Does it hold?
A) n
